target: T1, recombinant human CD38 extracellular domain protein (ACROBiosystems, Cat #CD8-H5224) (human, UniProt P28907 43-300); test: BLI (Octet 384), IgG on anti-human IgG Fc biosensors, soluble human CD38 as analyte, 1:1 global fit
T1 construct: Bought protein; also called recombinant human CD38 protein
pKd: −log10 of the molar value.
// reported pKd for each item listed
experimental endpoint: pKd

* IgG OKT10-2 (antibody, V domains shown, also called humanized OKT10 IgG (OKT10VH2 / OKT10VL2)) VH: EVQLLESGGGLVQPGGSLRLSCAASGFDFSRSWMNWVRQAPGKGLEWVSEINPDSSTINYATSLKDRFTISRDNSKNTLYLQMNSLRAEDTAVYYCARYGNWFPYWGQGTLVTVSS VL: DIQMTQSPSSLSASVGDRVTITCKASQNVDTNVAWYQQKPGKAPKALIYSASYRYSGVPSRFSGSGSGTDFTLTISSLQPEDFATYYCQQYDSYPLTFGQGTKVEIK | 7.55
* IgG OKT10-1 (antibody, V domains shown, also called parental OKT10 in IgG format) VH: EVKLQESGGGLVQPGGSLKLSCAASGFDFSRSWMNWVRQAPGKGLEWIGEINPDSSTINYTTSLKDKFIISRDNAKNTLYLQMTKVRSEDTALYYCARYGNWFPYWGQGTLVTVSA VL: DIVMTQSPKIMPTSVGDRVSVTCKASQNVDTNVAWYQQKPGQSPKALIYSASYRYSGVPDRFTGSGSGTDFTLTITNVQSEDLAEYFCQQYDSYPLTFGAGTKLDLK | 8.22
* IgG E-2 (antibody, V domains shown, also called humanized Clone E IgG (EVH1 / EVL1)) VH: QVQLVQSGAEVKKPGSSVKVSCKASGYTFTNHWIEWVRQAPGQGLEWMGDIFPGGGYTDYNEKFKGRVTITADESTSTAYMELSSLRSEDTAVYYCARGRDLAMDYWGQGTLVTVSS VL: DIQMTQSPSSLSASVGDRVTITCHASQNINVWLGWYQQKPGKAPKLLIYKASNLHTGVPSRFSGSGSGTDFTLTISSLQPEDFATYYCQQGQSYPYTFGQGTKVEIK | 8.12
